biological target: human PPARalpha (Homo sapiens); construct: amino acids S167–Y468; experiment: Cellular PPARalpha assay (stably transfected HEK luciferase reporter cell line); conditions: PPARalpha reporter cell line (HEK, GR-GAL4-humanPPARalpha-LBD), luciferase readout
Sequence (Q07869 167-468): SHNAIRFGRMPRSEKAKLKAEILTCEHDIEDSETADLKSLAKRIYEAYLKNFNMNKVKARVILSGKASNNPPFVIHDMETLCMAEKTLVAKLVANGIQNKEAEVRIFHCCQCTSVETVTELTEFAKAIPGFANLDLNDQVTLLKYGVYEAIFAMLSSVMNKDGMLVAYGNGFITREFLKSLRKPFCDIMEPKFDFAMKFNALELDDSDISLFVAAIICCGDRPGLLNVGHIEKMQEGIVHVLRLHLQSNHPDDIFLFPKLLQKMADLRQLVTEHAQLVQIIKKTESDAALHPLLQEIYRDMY
Could you please mark condition met for values of EC50 below 700 nM and condition not met for values at or above it?

1) Cc1ccc(-c2nc(COC3CCCC(CC4SC(=O)NC4=O)C3)c(C)o2)cc1 (centres unmarked)	condition met
2) Cc1cccc(-c2nc(COC3CCCC(OCCC4SC(=O)NC4=O)C3)c(C)o2)c1 (centres unmarked)	condition not met
3) Cc1oc(-c2ccc(F)cc2)nc1CO[C@@H]1CCC[C@H](OS(=O)(=O)c2cc([N+](=O)[O-])ccc2Cl)C1 (relative stereo)	condition not met
4) Cc1ccc(-c2nc(CO[C@@H]3CCC[C@H](/C=C4/SC(=O)NC4=O)C3)c(C)o2)cc1 (racemic)	condition met
5) Cc1oc(-c2ccc(F)cc2)nc1CO[C@H]1CCC[C@@H](OCc2cccc([N+](=O)[O-])c2)C1 (relative stereo)	condition met
6) Cc1oc(-c2ccc(F)cc2)nc1COC1CCCC(OC/C=C2\NC(=O)NC2=O)C1 (racemic)	condition met
7) COc1ccc(S(=O)(=O)O[C@H]2CCC[C@@H](OCc3nc(-c4ccc(F)cc4)oc3C)C2)c([N+](=O)[O-])c1 (relative stereo)	condition not met

The reported numbers originate from patent US7148246B2.
